- Target entity: BTK C481S (Homo sapiens, UniProt Q06187, C481S)
- Sequence (Q06187 whole entry C481S): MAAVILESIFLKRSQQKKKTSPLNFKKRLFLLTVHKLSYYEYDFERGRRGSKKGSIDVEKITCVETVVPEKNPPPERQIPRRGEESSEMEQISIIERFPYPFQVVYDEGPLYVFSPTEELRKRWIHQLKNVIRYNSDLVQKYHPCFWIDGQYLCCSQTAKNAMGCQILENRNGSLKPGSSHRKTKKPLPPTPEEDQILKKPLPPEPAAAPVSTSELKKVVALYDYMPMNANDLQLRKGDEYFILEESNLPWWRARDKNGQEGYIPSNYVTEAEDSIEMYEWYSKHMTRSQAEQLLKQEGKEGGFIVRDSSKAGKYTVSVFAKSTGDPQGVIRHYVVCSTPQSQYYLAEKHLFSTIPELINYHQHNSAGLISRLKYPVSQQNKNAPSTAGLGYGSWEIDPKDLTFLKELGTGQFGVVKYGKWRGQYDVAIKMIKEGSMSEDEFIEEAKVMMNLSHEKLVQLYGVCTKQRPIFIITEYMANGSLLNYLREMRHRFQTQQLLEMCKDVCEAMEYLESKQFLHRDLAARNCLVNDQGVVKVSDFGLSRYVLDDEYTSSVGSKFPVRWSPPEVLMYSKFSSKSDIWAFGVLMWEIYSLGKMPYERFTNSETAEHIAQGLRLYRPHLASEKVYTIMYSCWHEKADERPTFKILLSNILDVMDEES
- Protocol summary: Inhibition of BTK, kinase IC50
- Assay type: biochemical
- Design: RBC (only as the name of the general kinase protocol)
pIC50: −log10 of the molar value.

Structure notation	pIC50
Cc1cnc(-c2ccc(-c3ccc(NC(=O)Nc4c(F)cc(F)cc4F)cc3F)c3c2C(=O)NC3)[nH]1	8.60

----------
- Test system: EOL-1
- Protocol summary: Cytotoxicity, MTS cell viability
- Type: cell-based
- Condition info: Homo sapiens, EOL1, AML, 72 hour MTS
pIC50: −log10 of the molar value.
Measure name: pIC50

Structure notation	Target entity	Measure name	Readout number
Cc1cnc(-c2ccc(-c3ccc(NC(=O)Nc4c(F)cc(F)cc4F)cc3F)c3c2C(=O)NC3)[nH]1	EOL-1	pIC50	10.35

----------
- Test system: MV4-11 (FLT3-ITD, t(4:11))
- Protocol summary: Antiproliferative activity (Table 6)
- Assay type: cell-based
- Condition info: Homo sapiens, MV4-11, 72 h
pIC50: −log10 of the molar value.

Compound	pIC50
Cc1cnc(-c2ccc(-c3ccc(NC(=O)Nc4c(F)cc(F)cc4F)cc3F)c3c2C(=O)NC3)[nH]1 [Compound 7]	9.77

----------
These records show IC50 for BTK WT (Homo sapiens, UniProt Q06187).
Measure name: IC50 (nM)

Compound	Readout number
Cc1cnc(-c2ccc(-c3ccc(NC(=O)Nc4c(F)cc(F)cc4F)cc3F)c3c2C(=O)NC3)[nH]1 [Compound 7]	5
NC(=O)[C@H]1CCN(c2ncnc(N)c2F)C[C@@H]1N1CCC[C@@H](Nc2cc(Cl)cc(C(F)(F)F)c2)C1=O [SNS-062, reference compound]	0.4

----------
- Tested on: HEL92.1.7
- Protocol summary: Cytotoxicity, MTS cell viability
- Assay type: cell-based
- Condition info: Homo sapiens, HEL 92.1.7, AML, 72 hour MTS

Structure notation	Target entity	IC50 [µM]
Cc1cnc(-c2ccc(-c3ccc(NC(=O)Nc4c(F)cc(F)cc4F)cc3F)c3c2C(=O)NC3)[nH]1	HEL92.1.7	4.69

----------
- Tested on: DOHH2
- Protocol summary: Cytotoxicity, MTS cell viability
- Type: cell-based
- Condition info: Homo sapiens, DOHH-2, 72 h, FL, 3 days MTS
pIC50: −log10 of the molar value.

Structure notation	pIC50
Cc1cnc(-c2ccc(-c3ccc(NC(=O)Nc4c(F)cc(F)cc4F)cc3F)c3c2C(=O)NC3)[nH]1	8.53

----------
- Test system: Jurkat
- Protocol summary: Cytotoxicity, MTS cell viability
- Assay type: cell-based
- Condition info: Homo sapiens, ALL, 72 hour MTS
Measure name: IC50 (nM)

Molecule	Measure name	Readout number
Cc1cnc(-c2ccc(-c3ccc(NC(=O)Nc4c(F)cc(F)cc4F)cc3F)c3c2C(=O)NC3)[nH]1 [Compound 7]	IC50	1590

----------
- Target entity: EGFR (Homo sapiens, UniProt P00533)
- Sequence (P00533 25-1210): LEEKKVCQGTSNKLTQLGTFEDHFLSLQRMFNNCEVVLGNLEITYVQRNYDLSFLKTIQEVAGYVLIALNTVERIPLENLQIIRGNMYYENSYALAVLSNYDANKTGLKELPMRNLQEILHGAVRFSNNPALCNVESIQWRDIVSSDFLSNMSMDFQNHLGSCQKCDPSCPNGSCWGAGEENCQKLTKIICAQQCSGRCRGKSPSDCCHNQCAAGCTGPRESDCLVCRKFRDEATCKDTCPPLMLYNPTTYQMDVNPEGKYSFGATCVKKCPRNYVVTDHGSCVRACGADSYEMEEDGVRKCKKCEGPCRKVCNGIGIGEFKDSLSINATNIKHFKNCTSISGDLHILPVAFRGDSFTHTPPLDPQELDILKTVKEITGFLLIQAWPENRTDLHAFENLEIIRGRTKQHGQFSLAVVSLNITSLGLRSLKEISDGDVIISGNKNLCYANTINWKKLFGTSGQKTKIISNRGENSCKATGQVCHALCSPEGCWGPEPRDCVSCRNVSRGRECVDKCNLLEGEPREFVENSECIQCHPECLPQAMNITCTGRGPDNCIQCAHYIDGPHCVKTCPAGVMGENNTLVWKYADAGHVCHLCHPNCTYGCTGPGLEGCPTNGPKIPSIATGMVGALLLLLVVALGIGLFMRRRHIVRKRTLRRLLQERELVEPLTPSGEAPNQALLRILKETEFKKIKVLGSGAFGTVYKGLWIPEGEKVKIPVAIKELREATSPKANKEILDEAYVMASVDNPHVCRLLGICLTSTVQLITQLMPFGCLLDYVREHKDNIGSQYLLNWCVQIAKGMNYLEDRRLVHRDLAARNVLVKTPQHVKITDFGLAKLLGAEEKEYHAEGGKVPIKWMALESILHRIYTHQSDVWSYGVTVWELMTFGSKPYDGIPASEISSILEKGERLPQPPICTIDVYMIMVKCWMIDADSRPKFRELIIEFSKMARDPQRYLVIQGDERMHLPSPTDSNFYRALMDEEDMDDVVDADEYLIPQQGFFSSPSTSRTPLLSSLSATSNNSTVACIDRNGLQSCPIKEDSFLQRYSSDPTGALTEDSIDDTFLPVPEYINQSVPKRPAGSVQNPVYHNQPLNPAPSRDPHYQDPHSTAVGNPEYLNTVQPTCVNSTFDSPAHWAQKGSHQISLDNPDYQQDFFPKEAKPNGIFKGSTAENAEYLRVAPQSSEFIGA
pIC50: −log10 of the molar value.
Measure name: pIC50

Structure notation	Result
Cc1cnc(-c2ccc(-c3ccc(NC(=O)Nc4c(F)cc(F)cc4F)cc3F)c3c2C(=O)NC3)[nH]1	< 6.00

----------
- Target entity: FLT3(ITD-F691L) (Homo sapiens, UniProt P36888, F691L, form not given)
- Construct: kinase-tagged T7 phage strains were prepared in an E. coli host derived from the BL21 strain; fused on or other part: T7 phage fusion or DNA tag for qPCR detection
- Protocol summary: Binding constant (Kd), competition binding with qPCR readout

Compound	Target entity	Scale unit	Kd
Cc1cnc(-c2ccc(-c3ccc(NC(=O)Nc4c(F)cc(F)cc4F)cc3F)c3c2C(=O)NC3)[nH]1 [Compound 7]	FLT3(ITD-F691L) (Homo sapiens, UniProt P36888, F691L, form not given)	nM	15

----------
- Target entity: FLT3(WT) (Homo sapiens)

Structure notation	Kd, pM
Cc1cnc(-c2ccc(-c3ccc(NC(=O)Nc4c(F)cc(F)cc4F)cc3F)c3c2C(=O)NC3)[nH]1	240

----------
- Target entity: BTK (E41K) (Homo sapiens, UniProt Q06187, E41K)
- Construct: RBC (only as the name of the general kinase protocol)
- Sequence (Q06187 whole entry E41K): as the sequence (Q06187 whole entry C481S) above, with E41K, S481C counted along it
- Protocol summary: Inhibition of BTK, kinase IC50

Compound	Target entity	Scale unit	IC50
Cc1cnc(-c2ccc(-c3ccc(NC(=O)Nc4c(F)cc(F)cc4F)cc3F)c3c2C(=O)NC3)[nH]1 [Compound 7]	BTK (E41K) (Homo sapiens, UniProt Q06187, E41K)	nM	14.5

----------
- Target entity: BTK (P190K) (Homo sapiens, UniProt Q06187, P190K)
- Construct: RBC (only as the name of the general kinase protocol)
- Sequence (Q06187 whole entry P190K): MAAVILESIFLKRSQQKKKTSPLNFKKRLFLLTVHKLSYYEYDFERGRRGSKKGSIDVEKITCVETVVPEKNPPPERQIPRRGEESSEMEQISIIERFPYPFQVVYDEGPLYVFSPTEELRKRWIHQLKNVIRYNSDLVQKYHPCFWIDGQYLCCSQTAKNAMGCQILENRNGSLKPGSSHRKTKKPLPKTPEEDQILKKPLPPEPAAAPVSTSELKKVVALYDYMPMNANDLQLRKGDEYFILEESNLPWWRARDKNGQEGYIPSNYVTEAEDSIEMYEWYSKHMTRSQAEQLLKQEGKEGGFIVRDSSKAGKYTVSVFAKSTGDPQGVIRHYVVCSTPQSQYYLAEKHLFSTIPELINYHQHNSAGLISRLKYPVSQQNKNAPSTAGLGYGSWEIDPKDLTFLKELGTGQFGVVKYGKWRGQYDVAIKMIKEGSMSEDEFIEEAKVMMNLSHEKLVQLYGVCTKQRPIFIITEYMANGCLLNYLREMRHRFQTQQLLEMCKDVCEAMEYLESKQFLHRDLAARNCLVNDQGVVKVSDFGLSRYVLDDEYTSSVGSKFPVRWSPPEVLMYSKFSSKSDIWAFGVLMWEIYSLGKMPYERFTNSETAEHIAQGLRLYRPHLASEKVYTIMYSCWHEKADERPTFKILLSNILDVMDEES
- Protocol summary: Inhibition of BTK, kinase IC50
- Format: biochemical

Compound	IC50, nM
Cc1cnc(-c2ccc(-c3ccc(NC(=O)Nc4c(F)cc(F)cc4F)cc3F)c3c2C(=O)NC3)[nH]1 [Compound 7]	6.59

----------
- Test system: Raji
- Protocol summary: Cytotoxicity, MTS cell viability
- Assay type: cell-based
- Condition info: Burkitt's, 3 days MTS
pIC50: −log10 of the molar value.
Measure name: pIC50

Structure notation	Target entity	Measure name	Readout number
Cc1cnc(-c2ccc(-c3ccc(NC(=O)Nc4c(F)cc(F)cc4F)cc3F)c3c2C(=O)NC3)[nH]1	Raji	pIC50	5.69

----------
- Test system: MHH-Call4
- Protocol summary: Cytotoxicity, MTS cell viability
- Assay type: cell-based
- Condition info: MHHCALL4, 72 h, B-ALL, 3 days MTS

Compound	IC50 (nM)
Cc1cnc(-c2ccc(-c3ccc(NC(=O)Nc4c(F)cc(F)cc4F)cc3F)c3c2C(=O)NC3)[nH]1 [Compound 7]	27.8

----------
- Tested on: Jeko-1
- Protocol summary: Cytotoxicity, MTS cell viability
- Format: cell-based
- Condition info: Homo sapiens, 72 h, MCL, 3 days MTS
pIC50: −log10 of the molar value.

Structure notation	pIC50
Cc1cnc(-c2ccc(-c3ccc(NC(=O)Nc4c(F)cc(F)cc4F)cc3F)c3c2C(=O)NC3)[nH]1	7.13

----------
- System: Daudi
- Protocol summary: Cytotoxicity, MTS cell viability
- Type: cell-based
- Condition info: Homo sapiens, 72 h, Burkitt's, 3 days MTS
pIC50: −log10 of the molar value.

Structure notation	pIC50
Cc1cnc(-c2ccc(-c3ccc(NC(=O)Nc4c(F)cc(F)cc4F)cc3F)c3c2C(=O)NC3)[nH]1	6.78

----------
- Tested on: Ba/F3-ITD + D835H (FLT3-ITD + D835H)
- Protocol summary: Antiproliferative activity (Table 6)
- Assay type: cell-based, Murin
- Condition info: Ba/F3-ITD + D835H; 48 h (Gilteritinib); read-out: IC50

Molecule	Target entity	IC50 [nM]
CCc1nc(C(N)=O)c(Nc2ccc(N3CCC(N4CCN(C)CC4)CC3)c(OC)c2)nc1NC1CCOCC1 [Gilteritinib, reference compound]	Ba/F3-ITD + D835H (FLT3-ITD + D835H)	10.4

----------
- Target entity: BTK (Homo sapiens, UniProt Q06187)
- Sequence (Q06187 whole entry): as the sequence (Q06187 whole entry C481S) above, with S481C counted along it

Structure notation	Target entity	Scale unit	IC50
Cc1cnc(-c2ccc(-c3ccc(NC(=O)Nc4c(F)cc(F)cc4F)cc3F)c3c2C(=O)NC3)[nH]1	BTK (Homo sapiens, UniProt Q06187)	nM	8.42

----------
- Target entity: FLT3(K663Q) (Homo sapiens, UniProt P36888, K663Q)
- Protocol summary: Binding constant (Kd), competition binding with qPCR readout

Structure notation	Target entity	Scale unit	Kd
Cc1cnc(-c2ccc(-c3ccc(NC(=O)Nc4c(F)cc(F)cc4F)cc3F)c3c2C(=O)NC3)[nH]1	FLT3(K663Q) (Homo sapiens, UniProt P36888, K663Q)	nM	0.55

----------
- Target entity: FLT3(ITD) (Homo sapiens, UniProt P36888)
- Sequence (P36888 1-993): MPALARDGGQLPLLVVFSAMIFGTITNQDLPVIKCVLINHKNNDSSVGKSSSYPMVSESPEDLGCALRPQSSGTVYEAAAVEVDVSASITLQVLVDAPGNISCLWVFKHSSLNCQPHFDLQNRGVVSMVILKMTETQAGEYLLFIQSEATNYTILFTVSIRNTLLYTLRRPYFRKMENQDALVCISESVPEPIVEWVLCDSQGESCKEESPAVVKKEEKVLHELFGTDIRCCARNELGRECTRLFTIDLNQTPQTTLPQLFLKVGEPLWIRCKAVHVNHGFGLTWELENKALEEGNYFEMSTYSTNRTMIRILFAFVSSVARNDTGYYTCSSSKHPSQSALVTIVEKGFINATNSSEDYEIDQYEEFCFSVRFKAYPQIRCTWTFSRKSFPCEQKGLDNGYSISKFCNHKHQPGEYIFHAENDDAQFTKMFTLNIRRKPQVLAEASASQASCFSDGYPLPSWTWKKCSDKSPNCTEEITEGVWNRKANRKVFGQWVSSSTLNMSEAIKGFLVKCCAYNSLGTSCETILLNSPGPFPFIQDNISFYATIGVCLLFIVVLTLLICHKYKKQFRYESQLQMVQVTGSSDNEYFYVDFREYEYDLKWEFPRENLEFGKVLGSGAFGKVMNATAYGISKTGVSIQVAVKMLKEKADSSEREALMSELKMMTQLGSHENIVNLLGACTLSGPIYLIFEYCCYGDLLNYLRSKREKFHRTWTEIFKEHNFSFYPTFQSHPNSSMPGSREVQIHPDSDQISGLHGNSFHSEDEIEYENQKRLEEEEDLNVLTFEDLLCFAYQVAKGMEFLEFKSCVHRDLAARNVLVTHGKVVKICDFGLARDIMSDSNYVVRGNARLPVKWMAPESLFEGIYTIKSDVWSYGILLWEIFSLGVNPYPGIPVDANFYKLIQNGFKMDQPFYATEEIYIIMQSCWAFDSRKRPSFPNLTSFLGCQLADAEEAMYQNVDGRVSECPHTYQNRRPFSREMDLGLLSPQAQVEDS
- Protocol summary: Binding constant (Kd), competition binding with qPCR readout

Compound	Scale unit	Kd
Cc1cnc(-c2ccc(-c3ccc(NC(=O)Nc4c(F)cc(F)cc4F)cc3F)c3c2C(=O)NC3)[nH]1 [Compound 7]	nM	3.1
